- tgt: HiBit-KRAS^G12C (Homo sapiens, UniProt P01116, G12C)
- Sequence (P01116 1-186 isoform P01116-2 G12C limits assumed): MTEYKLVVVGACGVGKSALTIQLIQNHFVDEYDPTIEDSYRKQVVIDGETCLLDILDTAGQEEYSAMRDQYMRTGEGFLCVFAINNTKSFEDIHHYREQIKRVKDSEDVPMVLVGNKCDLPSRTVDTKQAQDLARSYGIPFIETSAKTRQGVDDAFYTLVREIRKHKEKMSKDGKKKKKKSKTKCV
- assay details: HiBit degradation assay in SW1573 HiBit-KRas^G12C cells
- Assay type: cell-based
- Design: expressed in transfected cells; host or cells: SW1573 (clone E6), modified pcDNA3.1 vector, TK promoter
- stated conditions: SW1573 HiBit-KRas^G12C, 0.1% DMSO, 24 hours; read-out: KRas^G12C-HIBit (SW1573; 0.1% DMSO) DC50*
value type: DC50

Below, 3 compounds whose answers are already recorded.
{"structure string": "C=CC(=O)N1CCN(c2nc(OC[C@@H]3C[C@@H](OCCOc4cc(-c5scnc5C)ccc4CNC(=O)[C@@H]4C[C@@H](O)CN4C(=O)[C@@H](c4cc(C)no4)C(C)C)CN3C)nc3c2CCN(c2cccc4ccccc24)C3)C[C@@H]1CC#N", "tgt": "HiBit-KRAS^G12C (Homo sapiens, UniProt P01116, G12C)", "value type": "DC50", "observed value": "> 1000 nM"}
{"structure string": "C=CC(=O)N1CCN(c2nc(OCCN3CCC(CCOCC(=O)N[C@H](C(=O)N4C[C@H](O)C[C@H]4C(=O)N[C@@H](C)c4ccc(-c5scnc5C)cc4)C(C)(C)C)CC3)nc3c(F)c(-c4cc(O)cc5ccccc45)c(Cl)cc23)CC1", "tgt": "HiBit-KRAS^G12C (Homo sapiens, UniProt P01116, G12C)", "value type": "DC50", "observed value": "100 to 1000 nM"}
{"structure string": "C=CC(=O)N1CCN(c2nc(O[C@H](C)CN3CCC(OCC(=O)N[C@H](C(=O)N4C[C@H](O)C[C@H]4C(=O)N[C@@H](C)c4ccc(-c5scnc5C)cc4)C(C)(C)C)CC3)nc3c(F)c(-c4cc(O)cc5ccccc45)c(Cl)cc23)CC1", "tgt": "HiBit-KRAS^G12C (Homo sapiens, UniProt P01116, G12C)", "value type": "DC50", "observed value": "100 to 1000 nM"}

// switching to the query compound
response.value for C=CC(=O)N1CCN(c2nc(O[C@H](C)CN3CCN(CCCOC4CN(CC(=O)N[C@H](C(=O)N5C[C@H](O)C[C@H]5C(=O)N[C@@H](C)c5ccc(-c6scnc6C)cc5)C(C)(C)C)C4)CC3)nc3c(F)c(-c4cc(O)cc5ccccc45)c(Cl)cc23)CC1 (field: DC50) = 100 to 1000 nM

---

- tgt: HiBit-KRAS^G12C (Homo sapiens, UniProt P01116, G12C)
- assay details: HiBit degradation assay in SW1573 HiBit-KRas^G12C cells
- Assay type: cell-based
- Set-up: expressed in transfected cells; host or cells: SW1573 (clone E6), modified pcDNA3.1 vector, TK promoter
- stated conditions: read-out: KRas^G12C-HiBiT (SW1573; 0.5% DMSO) IC50***; SW1573 HiBit-KRas^G12C, 0.5% DMSO, 24 hours
DC50 values by entry

Below, 5 compounds whose answers are already recorded.
{"compound": "C=C(F)C(=O)N1CCN(c2nc(OCCN3CCC4(CC3)CN(c3cc([C@@H](C(=O)N5C[C@H](O)C[C@H]5C(=O)N[C@@H](C)c5ccc(-c6scnc6C)cc5)C(C)C)on3)C4)nc3c(F)c(-c4cc(O)cc5ccccc45)c(Cl)cc23)C[C@@H]1CC#N (atropisomer, axis not shown)", "tgt": "HiBit-KRAS^G12C (Homo sapiens, UniProt P01116, G12C)", "observed value": "> 1 µM"}
{"compound": "C=C(F)C(=O)N1CCN(c2nc(OCCN3CCC(F)(COc4cc([C@@H](C(=O)N5C[C@H](O)C[C@H]5C(=O)N[C@@H](C)c5ccc(-c6ccnn6C)cc5)C(C)C)on4)CC3)nc3c(F)c(-c4cc(O)cc5ccccc45)c(Cl)cc23)C[C@@H]1CC#N (atropisomer, axis not shown)", "tgt": "HiBit-KRAS^G12C (Homo sapiens, UniProt P01116, G12C)", "observed value": "0.1 to 1 µM"}
{"compound": "C=CC(=O)N1CCN(c2nc(OCCN3CCC4(CC3)CN(c3cc([C@H](C(=O)N5C[C@H](O)C[C@H]5C(=O)N[C@@H](C)c5ccc(-c6scnc6C)cc5)C(C)C)on3)C4)nc3c(F)c(-c4cc(O)cc5ccccc45)c(Cl)cc23)C[C@@H]1CC#N [Compound 139]", "tgt": "HiBit-KRAS^G12C (Homo sapiens, UniProt P01116, G12C)", "observed value": "< 0.1 µM"}
{"compound": "C=CC(=O)N1CCN(c2nc(OCCN3CCC(COCC(=O)N[C@H](C(=O)N4C[C@H](O)C[C@H]4C(=O)N[C@@H](C)c4ccc(-c5scnc5C)cc4)C(C)(C)C)CC3)nc3c(F)c(-c4cccc5cccc(C)c45)c(Cl)cc23)C[C@@H]1CC#N", "tgt": "HiBit-KRAS^G12C (Homo sapiens, UniProt P01116, G12C)", "observed value": "0.1 to 1 µM"}
{"compound": "C=CC(=O)N1CCN(c2nc(OCCN3CC[C@H](COCC(=O)N[C@H](C(=O)N4C[C@H](O)C[C@H]4C(=O)N[C@@H](C)c4ccc(-c5scnc5C)cc4)C(C)(C)C)C3)nc3c(F)c(-c4cc(O)cc5ccccc45)c(Cl)cc23)C[C@@H]1CC#N", "tgt": "HiBit-KRAS^G12C (Homo sapiens, UniProt P01116, G12C)", "observed value": "0.1 to 1 µM"}

response.value for C=C(F)C(=O)N1CCN(c2nc(OCCN3CCC4(CC3)CN(c3cc([C@H](C(=O)N5C[C@H](O)C[C@H]5C(=O)N[C@@H](C)c5ccc(-c6ccnn6C)cc5)C(C)C)on3)C4)nc3c(F)c(-c4cc(O)cc5ccccc45)c(Cl)cc23)C[C@@H]1CC#N (atropisomer, axis not shown) (field: DC50) = 0.1 to 1 µM

response.value for C=C(F)C(=O)N1CCN(c2nc(OCCN3CCC(COc4cc([C@@H](C(=O)N5C[C@H](O)C[C@H]5C(=O)N[C@@H](C)c5ccc(-c6ccnn6C)cc5)C(C)C)on4)CC3)nc3c(F)c(-c4cc(O)cc5ccccc45)c(Cl)cc23)C[C@@H]1CC#N (field: DC50) = > 1 µM
